Attribution: the supplement of paper PMC6555819

# Tested on: RXRa DBDmut IVT, anti-RXR (DBD mutation: RXRa K156A/R161A, NR concentration 90 nM)
# MEASUREMENT DESCRIPTION: PBM binding z-score (relative to random genomic background probes); higher = stronger binding; sequences stand for … in GC…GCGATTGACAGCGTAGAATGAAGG
Listed here: items and their measured PBM binding z-score.
Field format: numeric only.

# RESIDUE CODES, SYSTEM UNDER TEST, OBSERVED
records = [
    ("CCGACTGGGGCAAAGTTACCATAACGCACAGCCA", "RXRa DBDmut IVT, anti-RXR (DBD mutation: RXRa K156A/R161A, NR concentration 90 nM)", 0.41),
    ("TCAGCTAGGTCAACGATGGTCAGCTAATCTGCTA", "RXRa DBDmut IVT, anti-RXR (DBD mutation: RXRa K156A/R161A, NR concentration 90 nM)", 1.11),
    ("GCAGACAGGTGCAACGCAGGTAACTCAGGGTGGC", "RXRa DBDmut IVT, anti-RXR (DBD mutation: RXRa K156A/R161A, NR concentration 90 nM)", 0.123),
    ("CCAGACAGGTGAAAGGAAACTCAGTCTGGTACGC", "RXRa DBDmut IVT, anti-RXR (DBD mutation: RXRa K156A/R161A, NR concentration 90 nM)", -0.167),
    ("CCCACTGGGCCACGAAAGGTCATTGATTCAGTGA", "RXRa DBDmut IVT, anti-RXR (DBD mutation: RXRa K156A/R161A, NR concentration 90 nM)", -0.145),
]

Prompt: Find the recorded PBM binding z-score belonging to `TCTTGTAGAGCAAAGGTTAAGAAAGCCGAAGCCT` and report it.
Response: -0.181

Prompt: Find the recorded PBM binding z-score belonging to `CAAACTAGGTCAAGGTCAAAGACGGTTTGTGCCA` and report it.
Response: 3.16

Prompt: Find the recorded PBM binding z-score belonging to `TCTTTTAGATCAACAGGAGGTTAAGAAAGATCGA` and report it.
Response: 1.31

Prompt: Find the recorded PBM binding z-score belonging to `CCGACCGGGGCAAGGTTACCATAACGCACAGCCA` and report it.
Response: -0.596

Prompt: Find the recorded PBM binding z-score belonging to `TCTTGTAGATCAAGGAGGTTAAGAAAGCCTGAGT` and report it.
Response: 0.581

Prompt: Find the recorded PBM binding z-score belonging to `CCGACTGGGGCTAAGGTTACCATACTCAGTACGA` and report it.
Response: 0.382

Prompt: Find the recorded PBM binding z-score belonging to `CCGACTGGGGCAGAAAGGTTAACATACCATCCGG` and report it.
Response: -0.366

* * *

# Tested on: RARg homodimer (NR concentration 270 nM)
# MEASUREMENT DESCRIPTION: PBM binding z-score (relative to random genomic background probes); higher = stronger binding; sequences stand for … in GC…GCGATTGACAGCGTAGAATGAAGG
VALUE TYPE: PBM binding z-score
Field format: numeric only.

The cases that follow already have their PBM binding z-score on record.
# RESIDUE CODES, OBSERVED
rows = [
    ("TCTAGTTGGTCAAAGGTCACACATTCGAAATGCG", 5.76),
    ("GGAACGAGGGCATTCGAGTTGATAGAATGGCGAT", 1.5),
    ("GGAAAGAGGGCAAGTTGATAGCAGAGTTTGATGG", 3),
]

Prompt: Find the recorded PBM binding z-score belonging to `TAGCCTAGGTCATGGCCCAGTATACCACGCGAAC` and report it.
Response: 4.41

Prompt: Find the recorded PBM binding z-score belonging to `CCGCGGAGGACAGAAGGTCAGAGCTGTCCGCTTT` and report it.
Response: 3.56

Prompt: Find the recorded PBM binding z-score belonging to `CTCGAATGGTCGGTTGAGGTGAGTATACGGATAA` and report it.
Response: 0.168

Prompt: Find the recorded PBM binding z-score belonging to `CCTAGTTGGTCAAGGTCACACTCGCTATAGGTAC` and report it.
Response: 4.5

Prompt: Find the recorded PBM binding z-score belonging to `CCTTTCGGGTCACGAGGTTATAGCACGACGAGCG` and report it.
Response: 5.8

Prompt: Find the recorded PBM binding z-score belonging to `AGCATGAGGTTACCAAAGATCAGGGAAACGCTTG` and report it.
Response: 1.81

Prompt: Find the recorded PBM binding z-score belonging to `ACAGACAGGTGAGTGAAGGTAATTCAGCTGGACG` and report it.
Response: 0.578

Prompt: Find the recorded PBM binding z-score belonging to `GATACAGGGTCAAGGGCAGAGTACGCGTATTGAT` and report it.
Response: 5.26

Prompt: Find the recorded PBM binding z-score belonging to `AGAATGAGTTTATTAAGATCAGGGAATTGCGGTC` and report it.
Response: 0.321

Prompt: Find the recorded PBM binding z-score belonging to `CGAACTAGGGCATCCAGGACAGTGAATACATTGA` and report it.
Response: 1.17

Prompt: Find the recorded PBM binding z-score belonging to `TAGCCTAGATCAGATCGGGCCAGTATACGCTATA` and report it.
Response: -0.508

Prompt: Find the recorded PBM binding z-score belonging to `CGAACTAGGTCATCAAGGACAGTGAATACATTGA` and report it.
Response: 4.85

Prompt: Find the recorded PBM binding z-score belonging to `GCTAGTTGGTCAGTAAAAGGGCACACACCGGTCG` and report it.
Response: 1.32

* * *

# Test system: RARg:RXRa (NR concentration 270 nM, RXRa partner concentration 90 nM)
# MEASUREMENT DESCRIPTION: PBM binding z-score (relative to random genomic background probes); higher = stronger binding; sequences stand for … in GC…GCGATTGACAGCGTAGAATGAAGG
Listed here: items and their measured PBM binding z-score.
Field format: numeric only.

The cases that follow already have their PBM binding z-score on record.
# RESIDUE CODES, SYSTEM UNDER TEST, PBM binding z-score
rows = [
    ("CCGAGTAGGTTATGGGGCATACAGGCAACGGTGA", "RARg:RXRa (NR concentration 270 nM, RXRa partner concentration 90 nM)", 0.575),
    ("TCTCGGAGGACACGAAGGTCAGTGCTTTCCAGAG", "RARg:RXRa (NR concentration 270 nM, RXRa partner concentration 90 nM)", 2.87),
    ("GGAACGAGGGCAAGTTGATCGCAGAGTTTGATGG", "RARg:RXRa (NR concentration 270 nM, RXRa partner concentration 90 nM)", 1.49),
    ("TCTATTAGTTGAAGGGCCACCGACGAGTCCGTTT", "RARg:RXRa (NR concentration 270 nM, RXRa partner concentration 90 nM)", 0.277),
]

Prompt: Find the recorded PBM binding z-score belonging to `TCTAGCAGGCCAGATGGTCACTCAAGAGGTACGG` and report it.
Response: 0.0724

Prompt: Find the recorded PBM binding z-score belonging to `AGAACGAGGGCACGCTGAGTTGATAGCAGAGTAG` and report it.
Response: 2.08

Prompt: Find the recorded PBM binding z-score belonging to `CCTAGCAGGCCATTCTGGGTCACTCAAGGCTTGA` and report it.
Response: 1.3

Prompt: Find the recorded PBM binding z-score belonging to `CAAACTAGGTCAAGAGGTCAAATTCCGCTTCCCG` and report it.
Response: 8.27

Prompt: Find the recorded PBM binding z-score belonging to `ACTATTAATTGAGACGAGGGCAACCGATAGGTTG` and report it.
Response: 0.73

Prompt: Find the recorded PBM binding z-score belonging to `AGAACGAGGGCAATGAGTTGAGAGCACGGGTGGC` and report it.
Response: 0.994

Prompt: Find the recorded PBM binding z-score belonging to `TCTATTCGTTGATTAGGGCAACCGAAACAGCGGA` and report it.
Response: 0.485

Prompt: Find the recorded PBM binding z-score belonging to `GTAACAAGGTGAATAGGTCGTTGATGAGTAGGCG` and report it.
Response: 2.74

* * *

# Tested on: PPARg:RXRa 90nM:30nM, anti-RXR (NR concentration 90 nM, RXRa partner concentration 30 nM)
# MEASUREMENT DESCRIPTION: PBM binding z-score (relative to random genomic background probes); higher = stronger binding; sequences stand for … in GC…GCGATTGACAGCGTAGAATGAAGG
Listed here: items and their measured PBM binding z-score.
Field format: numeric only.

The cases that follow already have their PBM binding z-score on record.
# RESIDUE CODES, OBSERVED
data = [
    ("CAAACTAGCTCAAGGTCAAAGTCGGTTTGTGCCA", 2.05),
    ("GCTTGTAGAGCAAGGTTAAGAAAGACTAAGCTAA", 2.03),
    ("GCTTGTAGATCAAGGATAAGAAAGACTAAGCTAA", -0.0632),
]

Prompt: Find the recorded PBM binding z-score belonging to `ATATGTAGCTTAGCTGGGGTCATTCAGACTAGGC` and report it.
Response: 1.59

Prompt: Find the recorded PBM binding z-score belonging to `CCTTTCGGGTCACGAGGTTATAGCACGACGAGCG` and report it.
Response: 5.52

Prompt: Find the recorded PBM binding z-score belonging to `CGAACTAGGTCAGAACAGGAGAGTGAAGGATGAT` and report it.
Response: 3.7

Prompt: Find the recorded PBM binding z-score belonging to `GCTATTAGTGGAAAGGGCAACCGAATGATTCTCG` and report it.
Response: 3.34

Prompt: Find the recorded PBM binding z-score belonging to `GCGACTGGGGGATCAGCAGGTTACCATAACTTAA` and report it.
Response: 1.15

Prompt: Find the recorded PBM binding z-score belonging to `ACTAGGAGGCCAAGTTTGGGTCACTCAAACAAAG` and report it.
Response: -0.0404

Prompt: Find the recorded PBM binding z-score belonging to `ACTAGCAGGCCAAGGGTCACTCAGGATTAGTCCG` and report it.
Response: 8.16

Prompt: Find the recorded PBM binding z-score belonging to `CAAACTAGGTCAAGGTCAAAGTGGGTTTGTGCCA` and report it.
Response: 8.27

Prompt: Find the recorded PBM binding z-score belonging to `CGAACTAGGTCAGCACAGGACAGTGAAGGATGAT` and report it.
Response: 4.32

Prompt: Find the recorded PBM binding z-score belonging to `GCTAGCAGGCCATTTGGGTCTCTCAATGACGGGC` and report it.
Response: -0.9

Prompt: Find the recorded PBM binding z-score belonging to `GCTAGTTGGTCAGTTAAAGGTCACACACCGGTCG` and report it.
Response: 4.95

Prompt: Find the recorded PBM binding z-score belonging to `CGAAATAGGTCATTGACAGGACAGTGAATAGTAA` and report it.
Response: 6.12

Prompt: Find the recorded PBM binding z-score belonging to `TCTCGGCGGACACGAAAGGTCAGAGCTCGACATC` and report it.
Response: 1.53

Prompt: Find the recorded PBM binding z-score belonging to `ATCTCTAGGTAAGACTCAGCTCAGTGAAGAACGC` and report it.
Response: 0.109

Prompt: Find the recorded PBM binding z-score belonging to `TGTCAAAGTTCATAGGTAACGTAAGTATCCACAC` and report it.
Response: 6.63
